test system: 519858-162-T-J1-PDC complex spheroid growth, % test/control; assay: Anticancer human tumor 519858-162-T-J1-PDC patient-derived colon adenocarcinoma cell line growth inhibition [Asc]; details: second compound 0.949 µM; first compound 1 µM; stronger effect = lower value
Note to self: viability, T/C under 70% means fulfilled, ties and anything higher get not fulfilled.

CCN1CCN(Cc2ccc(Nc3ncc(F)c(-c4cc(F)c5nc(C)n(C(C)C)c5c4)n3)nc2)CC1 + CCN1C(C(=O)NC23CCC(C(=O)O)(CC2)CC3)C(c2cccc(Cl)c2F)C2(C(=O)Nc3cc(Cl)ccc32)C12CCCCC2: fulfilled

Task: Could you please tell me whether viability, T/C recorded for COc1c(OCCCN2CCOCC2)ccc2c3n(c(=NC(=O)c4cnc(N)nc4)nc12)CCN3 + CCN1C(C(=O)NC23CCC(C(=O)O)(CC2)CC3)C(c2cccc(Cl)c2F)C2(C(=O)Nc3cc(Cl)ccc32)C12CCCCC2 is less than 70%?
Output: fulfilled

Task: Could you please tell me whether viability, T/C recorded for C=C(F)C(=O)N1CCN(c2nc(OCC3CCCN3C)nc3c2CCN(c2cccc4cccc(Cl)c24)C3)CC1CC#N (stereo not drawn) + CCN1C(C(=O)NC23CCC(C(=O)O)(CC2)CC3)C(c2cccc(Cl)c2F)C2(C(=O)Nc3cc(Cl)ccc32)C12CCCCC2 is less than 70%?
Output: not fulfilled

Task: Could you please tell me whether viability, T/C recorded for O=C(c1ccc(F)c(F)c1Nc1ccc(I)cc1F)N1CC(O)([C@@H]2CCCCN2)C1 + CCN1C(C(=O)NC23CCC(C(=O)O)(CC2)CC3)C(c2cccc(Cl)c2F)C2(C(=O)Nc3cc(Cl)ccc32)C12CCCCC2 is less than 70%?
Output: fulfilled

Task: Could you please tell me whether viability, T/C recorded for CNC(C)C(=O)NC1CN(S(=O)(=O)c2cccc(S(=O)(=O)N3CCC4CCC(C(=O)NC(c5ccccc5)c5ccccc5)N4C(=O)C(NC(=O)C(C)NC)C3)c2)CCC2CCC(C(=O)NC(c3ccccc3)c3ccccc3)N2C1=O (stereo not drawn) + CCN1C(C(=O)NC23CCC(C(=O)O)(CC2)CC3)C(c2cccc(Cl)c2F)C2(C(=O)Nc3cc(Cl)ccc32)C12CCCCC2 is less than 70%?
Output: fulfilled

Task: Could you please tell me whether viability, T/C recorded for O=C(c1cc(Cc2n[nH]c(=O)c3ccccc23)ccc1F)N1CCN(C(=O)C2CC2)CC1 + CCN1C(C(=O)NC23CCC(C(=O)O)(CC2)CC3)C(c2cccc(Cl)c2F)C2(C(=O)Nc3cc(Cl)ccc32)C12CCCCC2 is less than 70%?
Output: not fulfilled

Task: Could you please tell me whether viability, T/C recorded for C#Cc1c(F)ccc2cc(O)cc(-c3ncc4c(N5CC6CCC(C5)N6)nc(OCC56CCCN5CC(F)C6)nc4c3F)c12 (stereo not drawn) + CCN1C(C(=O)NC23CCC(C(=O)O)(CC2)CC3)C(c2cccc(Cl)c2F)C2(C(=O)Nc3cc(Cl)ccc32)C12CCCCC2 is less than 70%?
Output: fulfilled

###

test system: 519858-162-T-J1-PDC complex spheroid growth, % test/control; assay: Anticancer human tumor 519858-162-T-J1-PDC cell line growth inhibition [Asc]; details: second compound 0.00316 µM; first compound 0.01 µM; stronger effect = lower value;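 further: seven day drug exposure begun three days after spheroid seeding; 100% = DMSO vehicle wells and lower values mean less viable spheroid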
property: viability, T/C

NC1CCC(NC2CC2c2ccccc2)CC1 (configuration not stated) + CNC(C)C(=O)NC1CN(S(=O)(=O)c2cccc(S(=O)(=O)N3CCC4CCC(C(=O)NC(c5ccccc5)c5ccccc5)N4C(=O)C(NC(=O)C(C)NC)C3)c2)CCC2CCC(C(=O)NC(c3ccccc3)c3ccccc3)N2C1=O: 112%

Consider the record given below.
Task: Supply recorded viability, T/C for O=C(c1ccc(F)c(F)c1Nc1ccc(I)cc1F)N1CC(O)([C@@H]2CCCCN2)C1 + CNC(C)C(=O)NC1CN(S(=O)(=O)c2cccc(S(=O)(=O)N3CCC4CCC(C(=O)NC(c5ccccc5)c5ccccc5)N4C(=O)C(NC(=O)C(C)NC)C3)c2)CCC2CCC(C(=O)NC(c3ccccc3)c3ccccc3)N2C1=O here.
Output: 133%

Source of measurements: PubChem BioAssay AID1963421
